From: patent US9409952B2

# measurementDescription: PAMPA (parallel artificial membrane permeability assay)
# Type: in vitro ADME
# experimentalContext: PAMPA, pH 6.5
Positions of bridges follow the written chain, without caps; N, C: chain ends. Non-standard residues stand in square brackets, D forms with d. Residues, ends and D or L forms follow the SMILES beside them. *: point of attachment. NMeF = CN[C@@H](Cc1ccccc1)C(=O)O; NMeA = CN[C@@H](C)C(=O)O; Piperidide = C1CCN(*)CC1
observedProperty: Papp at 18 hours, 50 µM (×10⁻⁶ cm/s)
Please respond with the number in ×10⁻⁶ cm/s and leave the unit unwritten.

Identify the reported Papp at 18 hours, 50 µM for the following entry. CC[C@H](C)[C@H](NC(=O)[C@@H]1CC(=O)N[C@@H](C)C(=O)N[C@@H]([C@@H](C)CC)C(=O)N(C)[C@@H](C)C(=O)N(C)[C@@H](Cc2ccccc2)C(=O)N[C@@H]([C@@H](C)O)C(=O)N(C)[C@@H](Cc2ccccc2)C(=O)N[C@@H](CC(C)C)C(=O)N2CCC[C@H]2C(=O)N1)C(=O)N1CCCCC1 [DP-669] (AI[NMeA][NMeF]T[NMeF]LPDI-Piperidide; lactam N-9)
29

====

# measurementDescription: Metabolic stability in human hepatic microsome
# Assay type: in vitro ADME
# experimentalContext: microsomes, pH 7.4; human hepatic microsome, NADPH(+); read-out: CL NADPH(+)
Positions of bridges follow the written chain, without caps; N, C: chain ends. Non-standard residues stand in square brackets, D forms with d. Residues, ends and D or L forms follow the SMILES beside them. *: point of attachment. NMeF = CN[C@@H](Cc1ccccc1)C(=O)O; NMeL = CN[C@@H](CC(C)C)C(=O)O; NMeA = CN[C@@H](C)C(=O)O; Piperidide = C1CCN(*)CC1
Quick list: microsomal CLint at 1 uM per entry.
Please respond with the number in µL/min/mg and leave the unit unwritten.

compound="CC(C)C[C@H]1C(=O)N(C)[C@@H](C)C(=O)N(C)[C@@H](Cc2ccccc2)C(=O)N[C@@H]([C@@H](C)O)C(=O)N(C)[C@@H](C)C(=O)N(C)[C@@H](Cc2ccccc2)C(=O)N[C@H](C(=O)N(C)[C@@H](Cc2ccccc2)C(=O)N[C@@H](C)C(=O)N2CCCCC2)CC(=O)N(C)[C@@H](C)C(=O)N(C)[C@@H](C)C(=O)N(C)[C@@H](CC(C)C)C(=O)N[C@@H](C)C(=O)N1C [DP-344] ([NMeA][NMeA][NMeL]A[NMeL][NMeA][NMeF]T[NMeA][NMeF]D[NMeF]A-Piperidide; lactam N-11)" assayvalue=30

Identify the reported microsomal CLint at 1 uM for the following entry. CC(C)C[C@@H]1NC(=O)[C@H](C)NC(=O)C[C@@H](C(=O)N2CCCCC2)NC(=O)[C@H](CC(C)C)N(C)C(=O)[C@H](C)NC(=O)[C@H](CC(C)C)NC(=O)[C@H](C(C)C)NC(=O)CNC(=O)[C@H](Cc2ccccc2)NC(=O)[C@H](C)N(C)C(=O)[C@H](CC(C)C)NC(=O)[C@H]([C@@H](C)O)NC(=O)[C@H](Cc2ccccc2)NC1=O [DP-82] (ALFTL[NMeA]FGVLA[NMeL]D-Piperidide; lactam N-13)
16

====

# measurementDescription: PAMPA (parallel artificial membrane permeability assay)
# Format: in vitro ADME
# experimentalContext: PAMPA; membrane permeation rate (Pe); 50 mM MOPSO buffer pH 6.5 with 5.0% glycocholic acid, 37° C., 18 hours; read-out: iPAMPA Pe
Starred links: 1 amine or outer side, 2 acyl side, 3 side chain; linkers in the order of their positions; H or OH if unused. Positions of bridges follow the written chain, without caps; N, C: chain ends. Non-standard residues stand in square brackets, D forms with d. Residues, ends and D or L forms follow the SMILES beside them. *: point of attachment. Phe(4-(CH2)5CO) = O=C([C@H](Cc1ccc(CCCCCC(=O)[*:3])cc1)N[*:1])[*:2]; NMeF = CN[C@@H](Cc1ccccc1)C(=O)O; NMeGABA = CN(CCCC(=O)[*:2])[*:1]; NMeI = CC[C@H](C)[C@H](NC)C(=O)O; hPhe = N[C@@H](CCc1ccccc1)C(=O)O; NMeβAla = CN(CCC(=O)[*:2])[*:1]; NMeL = CN[C@@H](CC(C)C)C(=O)O; NMeV = CN[C@H](C(=O)O)C(C)C; NMeA = CN[C@@H](C)C(=O)O; Piperidide = C1CCN(*)CC1; dNMeA = CN[C@H](C)C(=O)O; Sar = CNCC(=O)O; tBu = CC(C)(C)*
Rule: Papp at 18 hours, 50 µM of 20 ×10⁻⁶ cm/s or more gives condition met; anything lower gives condition not met.

Illustrative cases are given below, each with its answer.
compound="CC[C@H](C)[C@H]1C(=O)N[C@H](C(=O)N2CCCCC2)Cc2ccc(cc2)CCCCCC(=O)N[C@@H](CC(C)C)C(=O)N2CCC[C@H]2C(=O)N[C@@H](C(C)C)C(=O)N[C@@H](Cc2ccccc2)C(=O)N(C)CC(=O)N[C@@H](CC(C)C)C(=O)N[C@@H](C)C(=O)N1C [DP-879] (LPVF[Sar]LA[NMeI][Phe(4-(CH2)5CO)]-Piperidide; lactam N-9)" answerlabel="condition met"
compound="CC(C)C[C@H]1C(=O)N(C)[C@@H](Cc2ccccc2)C(=O)N[C@@H](Cc2ccccc2)C(=O)N(C)[C@@H](C)C(=O)N(C)[C@@H](C(C)C)C(=O)N[C@@H]([C@@H](C)O)C(=O)N[C@H](C(=O)N2CCCCC2)CC(=O)N(C)[C@@H](C)C(=O)N[C@@H](COC(C)(C)C)C(=O)NCC(=O)N1C [DP-438] ([NMeA]S(tBu)G[NMeL][NMeF]F[NMeA][NMeV]TD-Piperidide; lactam N-10)" answerlabel="condition met"
compound="CC[C@H](C)[C@@H]1NC(=O)[C@H](CC(C)C)N(C)C(=O)[C@H](Cc2ccccc2)NC(=O)[C@H](C)N(C)C(=O)C[C@@H](C(=O)N(C)[C@@H](Cc2ccccc2)C(=O)N(C)[C@@H](Cc2ccccc2)C(=O)N[C@@H](C)C(=O)N2CCCCC2)NC(=O)[C@H](C(C)C)N(C)C(=O)[C@H](C)N(C)C(=O)[C@H](C)N(C)C(=O)[C@H]([C@@H](C)O)NC(=O)CN(C)C1=O [DP-394] ([NMeA]F[NMeL]I[Sar]T[NMeA][NMeA][NMeV]D[NMeF][NMeF]A-Piperidide; lactam N-10)" answerlabel="condition met"
compound="CC(C)C[C@@H]1NC(=O)[C@@H]2CCCN2C(=O)[C@H](Cc2ccccc2)N(C)C(=O)[C@H](C)N(C)C(=O)[C@H]([C@@H](C)O)NC(=O)[C@@H](C(C)C)NC(=O)C[C@@H](C(=O)N2CCCCC2)NC(=O)[C@H](CC(C)C)N(C)C(=O)[C@H](C)N(C)C(=O)[C@H](CCc2ccccc2)NC(=O)[C@H](C(C)C)N(C)C1=O [DP-732] ([dV]T[NMeA][NMeF]PL[NMeV][hPhe][NMeA][NMeL]D-Piperidide; lactam N-11)" answerlabel="condition met"
compound="CC[C@H](C)[C@@H]1NC(=O)[C@H](CC(C)C)N(C)C(=O)CN(C)C(=O)[C@H]([C@@H](C)O)NC(=O)[C@H](C)N(C)C(=O)[C@H](Cc2ccccc2)NC(=O)[C@H](CC(C)C)N(C)C(=O)[C@H](C)N(C)C(=O)C[C@@H](C(=O)N(C)[C@@H](Cc2ccccc2)C(=O)N(C)[C@@H](Cc2ccccc2)C(=O)N[C@@H](C)C(=O)N2CCCCC2)NC(=O)[C@H](C(C)C)N(C)C1=O [DP-459] ([NMeA][NMeL]F[NMeA]T[Sar][NMeL]I[NMeV]D[NMeF][NMeF]A-Piperidide; lactam N-10)" answerlabel="condition not met"

Does the reported Papp at 18 hours, 50 µM for CC[C@H](C)[C@@H]1NC(=O)CCN(C)C(=O)C[C@@H](C(=O)N2CCCCC2)NC(=O)[C@H](Cc2ccccc2)N(C)C(=O)[C@H](CC(C)C)N(C)C(=O)[C@H](C)N(C)C(=O)[C@H](Cc2ccccc2)N(C)C(=O)[C@H]([C@@H](C)O)NC(=O)[C@H](CC(C)C)N(C)C(=O)[C@H](C)N(C)C(=O)[C@H](CC(C)C)N(C)C1=O [DP-159] ([NMeβAla]I[NMeL][NMeA][NMeL]T[NMeF][NMeA][NMeL][NMeF]D-Piperidide; lactam N-11) fall at or above the 20 ×10⁻⁶ cm/s mark?
condition met

Does the reported Papp at 18 hours, 50 µM for CC(C)C[C@H]1C(=O)N[C@@H]([C@@H](C)O)C(=O)N[C@H](C(=O)N(C)[C@@H](Cc2ccccc2)C(=O)N(C)[C@@H](Cc2ccccc2)C(=O)N[C@@H](C)C(=O)N2CCCCC2)CC(=O)N(C)[C@@H](C)C(=O)N(C)CC(=O)N(C)[C@@H](Cc2ccccc2)C(=O)N(C)[C@@H](C)C(=O)N[C@@H](C)C(=O)N(C)[C@@H](C)C(=O)N1C [DP-406] ([NMeA][Sar][NMeF][NMeA]A[NMeA][NMeL]TD[NMeF][NMeF]A-Piperidide; lactam N-9) fall at or above the 20 ×10⁻⁶ cm/s mark?
condition not met

Does the reported Papp at 18 hours, 50 µM for CC[C@H](C)[C@@H]1NC(=O)[C@H](CC(C)C)NC(=O)[C@H](C(C)C)NC(=O)[C@H](CC(C)C)N(C)C(=O)[C@H](CC(C)C)NC(=O)[C@H](Cc2ccccc2)NC(=O)[C@H]([C@@H](C)O)NC(=O)[C@H](CC(C)C)NC(=O)[C@H](Cc2ccccc2)NC(=O)[C@@H](C)N(C)C(=O)C[C@@H](C(=O)N2CCCCC2)NC1=O [DP-416] ([dNMeA]FLTFL[NMeL]VLID-Piperidide; lactam N-11) fall at or above the 20 ×10⁻⁶ cm/s mark?
condition not met

Does the reported Papp at 18 hours, 50 µM for CC[C@H](C)[C@@H]1NC(=O)CN(C)C(=O)[C@H](Cc2ccccc2)N(C)C(=O)[C@H]([C@@H](C)O)NC(=O)[C@H](CC(C)C)N(C)C(=O)[C@H](C)N(C)C(=O)CCCN(C)C(=O)C[C@@H](C(=O)N(C)[C@@H](Cc2ccccc2)C(=O)N[C@@H](C)C(=O)N2CCCCC2)NC(=O)[C@H](C(C)C)N(C)C(=O)[C@H](CC(C)C)N(C)C1=O [DP-374] ([NMeGABA][NMeA][NMeL]T[NMeF][Sar]I[NMeL][NMeV]D[NMeF]A-Piperidide; lactam N-10) fall at or above the 20 ×10⁻⁶ cm/s mark?
condition met
